# Assayed Target: wild type KRAS(WT) (Homo sapiens, UniProt P01116)
# Experiment: Surface plasmon resonance (SPR) binding to wild type KRAS
# Study Conditions: SPR Biacore 8K+, Single Cycle Kinetics, 30° C., 10 μM GDP, 1:1 binding model; read-out: Dissociation Constant KD (nM) for Wild Type KRAS
Starred links: 1 amine or outer side, 2 acyl side, 3 side chain; linkers in the order of their positions; H or OH if unused. Positions of bridges follow the written chain, without caps; N, C: chain ends. Non-standard residues stand in square brackets, D forms with d. Residues, ends and D or L forms follow the SMILES beside them. *: point of attachment. X5 = O=C([C@H](Cc1cccc(F)c1F)N[*:1])[*:2]; NMeY = CN[C@@H](Cc1ccc(O)cc1)C(=O)O; Gly(cBu) = N[C@H](C(=O)O)C1CCC1; NMeD = CN[C@@H](CC(=O)O)C(=O)O; NMeL = CN[C@@H](CC(C)C)C(=O)O; Pip = O=C(O)[C@@H]1CCCCN1; NMeAib = CNC(C)(C)C(=O)O; Nle = CCCC[C@H](N)C(=O)O; Piperidide = C1CCN(*)CC1; Aze = O=C(O)[C@@H]1CCN1; Sar = CNCC(=O)O
Measured Metric: Kd (nM)
# output: bare number, implied unit nM

Exercise: Query: Kd; subject: CCCC[C@@H]1NC(=O)[C@H](Cc2cccc(F)c2F)NC(=O)CN(C)C(=O)[C@H](Cc2ccc(OC)cc2)N(C)C(=O)[C@@H]2CCN2C(=O)[C@@H]2CCCCN2C(=O)[C@H](C2CCC2)NC(=O)[C@H](CC(C)C)N(C)C(=O)C[C@@H](C(=O)N2CCCCC2)N(C)C(=O)[C@H](CC(C)C)NC(=O)C(C)(C)N(C)C1=O [Compound 5] ([NMeL][Gly(cBu)][Pip][Aze][NMeY](Me)[Sar][X5][Nle][NMeAib]L[NMeD]-Piperidide; lactam N-11)
Key: 19

###

# Assayed Target: wild type KRAS(WT) (Homo sapiens)
# Experiment: Surface plasmon resonance (SPR) binding to wild type KRAS
# Study Conditions: SPR Biacore 8K+, Single Cycle Kinetics, 30° C., 10 μM GDP, 1:1 binding model; read-out: Dissociation Constant KD (nM) for Wild Type KRAS
Starred links: 1 amine or outer side, 2 acyl side, 3 side chain; linkers in the order of their positions; H or OH if unused. Positions of bridges follow the written chain, without caps; N, C: chain ends. Non-standard residues stand in square brackets, D forms with d. Residues, ends and D or L forms follow the SMILES beside them. *: point of attachment. hPhe(3-Cl-4-CF3) = N[C@@H](CCc1ccc(C(F)(F)F)c(Cl)c1)C(=O)O; X1 = CN([C@@H](CC1CCC(F)(F)CC1)C(=O)[*:2])[*:1]; NMePhe(4-Me) = CN[C@@H](Cc1ccc(C)cc1)C(=O)O; X4 = C#Cc1cccc(C[C@H](N[*:1])C(=O)[*:2])c1; Phe(3-I) = N[C@@H](Cc1cccc(I)c1)C(=O)O; X2 = CC(C)=CC[C@H](N[*:1])C(=O)[*:2]; NMeCha = CN[C@@H](CC1CCCCC1)C(=O)O; X3 = C[C@H](CN(C)[*:1])C(=O)[*:2]; NMeF = CN[C@@H](Cc1ccccc1)C(=O)O; Gly(cBu) = N[C@H](C(=O)O)C1CCC1; NMeD = CN[C@@H](CC(=O)O)C(=O)O; NMeL = CN[C@@H](CC(C)C)C(=O)O; NMehSer = CN[C@@H](CCO)C(=O)O; NMeV = CN[C@H](C(=O)O)C(C)C; d(β3hA) = C[C@@H](N)CC(=O)O; NMeS = CN[C@@H](CO)C(=O)O; Pip = O=C(O)[C@@H]1CCCCN1; NMeA = CN[C@@H](C)C(=O)O; NMeAib = CNC(C)(C)C(=O)O; Nle = CCCC[C@H](N)C(=O)O; Piperidide = C1CCN(*)CC1; Ac5c = NC1(C(=O)O)CCCC1; Aze = O=C(O)[C@@H]1CCN1; Sar = CNCC(=O)O
Measured Metric: Kd (nM)
# output: bare number, implied unit nM

As a guide, the following entries are already answered.
Molecule	Output Unit	Kd
CC(C)=CC[C@@H]1NC(=O)[C@H](Cc2cccc(I)c2)NC(=O)CN(C)C(=O)[C@H](CC2CCC(F)(F)CC2)N(C)C(=O)[C@@H]2CCN2C(=O)[C@@H]2CCCCN2C(=O)[C@H](C2CCC2)NC(=O)[C@H](CC(C)C)N(C)C(=O)C[C@@H](C(=O)N2CCCCC2)N(C)C(=O)[C@H](CC(C)C)NC(=O)[C@H](Cc2ccccc2)N(C)C1=O [Compound 2] ([NMeL][Gly(cBu)][Pip][Aze][X1][Sar][Phe(3-I)][X2][NMeF]L[NMeD]-Piperidide; lactam N-11)	nM	44
CCCC[C@@H]1NC(=O)[C@H](Cc2cccc(I)c2)NC(=O)CN(C)C(=O)[C@H](Cc2ccc(C)cc2)N(C)C(=O)CN(C)C(=O)CN(C)C(=O)[C@H]([C@@H](C)CC)NC(=O)[C@H](CCOC)N(C)C(=O)C[C@@H](C(=O)N2CCCCC2)N(C)C(=O)[C@H](CC(C)C)NC(=O)[C@H](COC)N(C)C1=O [Compound 3] ([NMehSer](Me)I[Sar][Sar][NMePhe(4-Me)][Sar][Phe(3-I)][Nle][NMeS](Me)L[NMeD]-Piperidide; lactam N-11)	nM	43

Exercise: Item: CC[C@H](C)[C@@H]1NC(=O)[C@H](CC(C)C)N(C)C(=O)C[C@@H](C)NC(=O)[C@H](C(C)C)N(C)C(=O)C2(CCCC2)NC(=O)[C@@H]2CCCN2C(=O)[C@H](CCc2ccc(C(F)(F)F)c(Cl)c2)NC(=O)CN(C)C(=O)[C@H](CC2CCCCC2)N(C)C(=O)[C@@H]2CCN2C(=O)[C@H](C)N(C)C1=O [Compound 6] (cyclo([Ac5c][NMeV][d(β3hA)][NMeL]I[NMeA][Aze][NMeCha][Sar][hPhe(3-Cl-4-CF3)]P)) Test system: wild type KRAS(WT) (Homo sapiens) Read-out: Kd Value: ?
Key: 16

Exercise: Lookup C#Cc1cccc(C[C@@H]2NC(=O)CN(C)C(=O)[C@H](CC3CCCCC3)N(C)C(=O)CN(C)C(=O)CN(C)C(=O)[C@H]([C@@H](C)CC)NC(=O)[C@H](C)CN(C)C(=O)C[C@@H](C(=O)N3CCCCC3)N(C)C(=O)[C@H](CC(C)C)NC(=O)C(C)(C)N(C)C(=O)[C@H](Cc3ccc(OC)cc3)NC2=O)c1 [Compound 4] ([X3]I[Sar][Sar][NMeCha][Sar][X4]Y(Me)[NMeAib]L[NMeD]-Piperidide; lactam N-11)
Key: 23

###

# Assayed Target: wild type KRAS(WT) (Homo sapiens)
# Experiment: Surface plasmon resonance (SPR) binding to wild type KRAS
# Study Conditions: SPR Biacore 8K+, Single Cycle Kinetics, 30° C., 10 μM GDP, 1:1 binding model; read-out: Dissociation Constant KD (nM) for Wild Type KRAS
Starred links: 1 amine or outer side, 2 acyl side, 3 side chain; linkers in the order of their positions; H or OH if unused. Positions of bridges follow the written chain, without caps; N, C: chain ends. Non-standard residues stand in square brackets, D forms with d. Residues, ends and D or L forms follow the SMILES beside them. *: point of attachment. hPhe(3-Cl-4-CF3) = N[C@@H](CCc1ccc(C(F)(F)F)c(Cl)c1)C(=O)O; NMeCha = CN[C@@H](CC1CCCCC1)C(=O)O; X6 = O=C(CN(CCN1CCNCC1)[*:1])[*:2]; NMeChg = CN[C@H](C(=O)O)C1CCCCC1; NMeD = CN[C@@H](CC(=O)O)C(=O)O; NMeL = CN[C@@H](CC(C)C)C(=O)O; Piperidide = C1CCN(*)CC1; Ac5c = NC1(C(=O)O)CCCC1; Sar = CNCC(=O)O
Measured Metric: Kd (nM)
# output: bare number, implied unit nM

Exercise: Query: Kd; subject: CC[C@H](C)[C@@H]1NC(=O)[C@H](CC(C)C)N(C)C(=O)C[C@@H](C(=O)N2CCCCC2)N(C)C(=O)[C@H](C2CCCCC2)N(C)C(=O)C2(CCCC2)NC(=O)CN(CCN2CCNCC2)C(=O)[C@H](CCc2ccc(C(F)(F)F)c(Cl)c2)NC(=O)CN(C)C(=O)[C@H](CC2CCCCC2)N(C)C(=O)CN(C)C(=O)CN(C)C1=O [Compound 7, reference compound] ([NMeL]I[Sar][Sar][NMeCha][Sar][hPhe(3-Cl-4-CF3)][X6][Ac5c][NMeChg][NMeD]-Piperidide; lactam N-11)
Key: 0.94
